Test system: Crude diglycosidase
procedure.text: Examination of pH in the conversion into isoflavone aglycons by diglycosidase using soybean materials
Format: biochemical, Penicillium multicolor IAM7153
experimental.context: pH8.6; heat treatment of enzyme: yes; reaction time 6 h
Experimental: A substrate solution of 450 μL was prepared by suspending 50 mg of each soybean material (roasted soy flour (manufactured by Fuji Shokuryo K.K.), soymilk (manufactured by Gitoh Shokuhin K.K.), defatted soybean (manufactured by Fuji Seiyu K.K.), concentrated soybean protein (manufactured by Fuji Seiyu K.K.)), and adjusting the pH to 2 to 11 with hydrochloric acid or sodium hydroxide. […]
result.type: Decomposition efficiency of glycitin family in concentrated soybean protein (%)

Example molecules with recorded Decomposition efficiency of glycitin family in concentrated soybean protein:
molecule	target.entity	units.of.measure	assay.result
COc1cc2c(=O)c(-c3ccc(O)cc3)coc2cc1O[C@@H]1O[C@H](CO)[C@@H](O)[C@H](O)[C@H]1O [glycitin]	Crude diglycosidase	%	56.8
COc1cc2c(=O)c(-c3ccc(O)cc3)coc2cc1O[C@@H]1O[C@H](COC(C)=O)[C@@H](O)[C@H](O)[C@H]1O [acetylglycitin, 6″-O-acetylglycitin]	Crude diglycosidase	%	31.6

P: COc1cc2c(=O)c(-c3ccc(O)cc3)coc2cc1O[C@@H]1O[C@H](COC(=O)CC(=O)O)[C@@H](O)[C@H](O)[C@H]1O [malonylglycitin, 6″-O-malonylglycitin]
Q: COc1cc2c(=O)c(-c3ccc(O)cc3)coc2cc1O [glycitein]
Query block: When P and Q are compared, which has the higher number for Decomposition efficiency of glycitin family in concentrated soybean protein? # answer = label of selected item
Result block: Q

---

Tested on: Crude diglycosidase
procedure.text: Examination of pH in the conversion into isoflavone aglycons by diglycosidase using soybean materials
Format: biochemical, Penicillium multicolor IAM7153
Design: concentration or dose not given beside the values
experimental.context: pH5.4; heat treatment of enzyme: no; reaction time 3 h
Protocol: A substrate solution of 450 μL was prepared by suspending 50 mg of each soybean material (roasted soy flour (manufactured by Fuji Shokuryo K.K.), soymilk (manufactured by Gitoh Shokuhin K.K.), defatted soybean (manufactured by Fuji Seiyu K.K.), concentrated soybean protein (manufactured by Fuji Seiyu K.K.)), and adjusting the pH to 2 to 11 with hydrochloric acid or sodium hydroxide. […]
result.type: Decomposition efficiency of daidzin family in defatted soybean (%)

compound.structure	target.entity	units.of.measure	assay.result
O=C(O)CC(=O)OC[C@H]1O[C@@H](Oc2ccc3c(=O)c(-c4ccc(O)cc4)coc3c2)[C@H](O)[C@@H](O)[C@@H]1O	Crude diglycosidase	%	41.5
O=c1c(-c2ccc(O)cc2)coc2cc(O)ccc12	Crude diglycosidase	%	58.5

---

Tested on: Crude diglycosidase
procedure.text: Examination of pH in the conversion into isoflavone aglycons by diglycosidase using soybean materials
Format: biochemical, Penicillium multicolor IAM7153
experimental.context: pH6.2, heat treatment of enzyme no, reaction time 1 h, 55° C.
Protocol: A substrate solution of 450 μL was prepared by suspending 50 mg of each soybean material (roasted soy flour (manufactured by Fuji Shokuryo K.K.), soymilk (manufactured by Gitoh Shokuhin K.K.), defatted soybean (manufactured by Fuji Seiyu K.K.), concentrated soybean protein (manufactured by Fuji Seiyu K.K.)), and adjusting the pH to 2 to 11 with hydrochloric acid or sodium hydroxide. […]
result.type: Decomposition efficiency of glycitin family in soymilk

compound.structure	target.entity	assay.result
COc1cc2c(=O)c(-c3ccc(O)cc3)coc2cc1O	Crude diglycosidase	53.6
COc1cc2c(=O)c(-c3ccc(O)cc3)coc2cc1O[C@@H]1O[C@H](COC(=O)CC(=O)O)[C@@H](O)[C@H](O)[C@H]1O	Crude diglycosidase	46.4

---

System: Crude diglycosidase
procedure.text: Examination of substrate concentration in the conversion into isoflavone aglycons by diglycosidase using soybean materials;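 also: percent of the isoflavone family total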
Assay type: biochemical, Penicillium multicolor IAM7153
experimental.context: roasted soy flour, substrate concentration 2%, heat treatment of enzyme no, reaction time 0 h
Quick list: Decomposition efficiency: ratio of each glycoside/aglycon within its isoflavone family per entry.
Report only the number, with the unit % understood.

compound.structure	assay.result
O=c1c(-c2ccc(O)cc2)coc2cc(O[C@@H]3O[C@H](CO)[C@@H](O)[C@H](O)[C@H]3O)ccc12	30.2
COc1cc2c(=O)c(-c3ccc(O)cc3)coc2cc1O	16.2

Kindly consider the entry below.
Query block: Would you mind telling me what Decomposition efficiency: ratio of each glycoside/aglycon within its isoflavone family value was observed for `CC(=O)OC[C@H]1O[C@@H](Oc2ccc3c(=O)c(-c4ccc(O)cc4)coc3c2)[C@H](O)[C@@H](O)[C@@H]1O` ?
Result block: 47.6

---

Tested on: Crude diglycosidase
procedure.text: Examination of pH in the conversion into isoflavone aglycons by diglycosidase using soybean materials
Assay type: biochemical, Penicillium multicolor IAM7153
experimental.context: pH8.6; heat treatment of enzyme: no; reaction time 3 h
result.type: Decomposition efficiency of daidzin family in concentrated soybean protein (%)
Report only the number, with the unit % understood.

compound.structure	assay.result
CC(=O)OC[C@H]1O[C@@H](Oc2ccc3c(=O)c(-c4ccc(O)cc4)coc3c2)[C@H](O)[C@@H](O)[C@@H]1O	39.0
O=c1c(-c2ccc(O)cc2)coc2cc(O[C@@H]3O[C@H](CO)[C@@H](O)[C@H](O)[C@H]3O)ccc12	45.0

Query block: Would you mind telling me what Decomposition efficiency of daidzin family in concentrated soybean protein value was observed for `O=c1c(-c2ccc(O)cc2)coc2cc(O)ccc12` ?
Result block: 15.9

---

Tested on: Crude diglycosidase
procedure.text: Examination of pH in the conversion into isoflavone aglycons by diglycosidase using soybean materials
Assay type: biochemical, Penicillium multicolor IAM7153
experimental.context: pH8.6; heat treatment of enzyme: no; reaction time 0 h
result.type: Decomposition efficiency of glycitin family in concentrated soybean protein (%)

Example molecules with recorded Decomposition efficiency of glycitin family in concentrated soybean protein:
compound.structure	target.entity	assay.result
COc1cc2c(=O)c(-c3ccc(O)cc3)coc2cc1O[C@@H]1O[C@H](COC(C)=O)[C@@H](O)[C@H](O)[C@H]1O	Crude diglycosidase	33.0
COc1cc2c(=O)c(-c3ccc(O)cc3)coc2cc1O[C@@H]1O[C@H](CO)[C@@H](O)[C@H](O)[C@H]1O	Crude diglycosidase	54.9

P: COc1cc2c(=O)c(-c3ccc(O)cc3)coc2cc1O
Q: COc1cc2c(=O)c(-c3ccc(O)cc3)coc2cc1O[C@@H]1O[C@H](COC(=O)CC(=O)O)[C@@H](O)[C@H](O)[C@H]1O
Query block: When P and Q are compared, which has the higher number for Decomposition efficiency of glycitin family in concentrated soybean protein? # answer = label of selected item
Result block: P

---

Tested on: Crude diglycosidase
procedure.text: Examination of substrate concentration in the conversion into isoflavone aglycons by diglycosidase using soybean materials;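 also: percent of the isoflavone family total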
Assay type: biochemical, Penicillium multicolor IAM7153
experimental.context: roasted soy flour, substrate concentration 5%, heat treatment of enzyme no, reaction time 1 h
Procedure: Into 20 mM acetate buffer of pH 4.0 was suspended 0.1 g, 0.25 g, 0.5 g, 1.0 g, or 1.5 g of each of various soybean materials (roasted soy flour (manufactured by Fuji Shokuryo K.K.), soymilk (manufactured by Gitoh Shokuhin K.K.), defatted soybean (manufactured by Fuji Seiyu K.K.), concentrated soybean protein (manufactured by Fuji Seiyu K.K.)). The pH of the suspension was measured and the liquid volume was adjusted to 4.5 mL while the pH was adjusted to 4.0 with 1N hydrochloric acid. […]
result.type: Decomposition efficiency: ratio of each glycoside/aglycon within its isoflavone family (%)

1: CC(=O)OC[C@H]1O[C@@H](Oc2cc(O)c3c(=O)c(-c4ccc(O)cc4)coc3c2)[C@H](O)[C@@H](O)[C@@H]1O [acetylgenistin, 6″-O-acetylgenistin]
2: COc1cc2c(=O)c(-c3ccc(O)cc3)coc2cc1O [glycitein]
Query block: Identify the item whose Decomposition efficiency: ratio of each glycoside/aglycon within its isoflavone family is the smaller number: 1 or 2 # answer = label of selected item
Result block: 1

---

Test system: Purified diglycosidase
procedure.text: Influence of free glucose on diglycosidase activity
Format: biochemical, Penicillium multicolor IAM7153
experimental.context: Glucose concentration 8 %; isolated aglycon amount at glucose 0% and 0.5 hour = 100%
result.type: Isolation of isoflavone aglycons by diglycosidase in presence of glucose (%)

compound.structure	target.entity	assay.result
O=C(O)CC(=O)OC[C@H]1O[C@@H](Oc2ccc3c(=O)c(-c4ccc(O)cc4)coc3c2)[C@H](O)[C@@H](O)[C@@H]1O	Purified diglycosidase	125.4
COc1cc2c(=O)c(-c3ccc(O)cc3)coc2cc1O[C@@H]1O[C@H](CO)[C@@H](O)[C@H](O)[C@H]1O	Purified diglycosidase	100.1
COc1cc2c(=O)c(-c3ccc(O)cc3)coc2cc1O[C@@H]1O[C@H](COC(=O)CC(=O)O)[C@@H](O)[C@H](O)[C@H]1O	Purified diglycosidase	128.6

---

System: Crude diglycosidase
procedure.text: Examination of substrate concentration in the conversion into isoflavone aglycons by diglycosidase using soybean materials;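 also: percent of the isoflavone family total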
Type: biochemical, Penicillium multicolor IAM7153
experimental.context: concentrated soybean protein, substrate concentration 10%, heat treatment of enzyme no, reaction time 0 h
result.type: Decomposition efficiency: ratio of each glycoside/aglycon within its isoflavone family (%)

Example compounds with recorded Decomposition efficiency: ratio of each glycoside/aglycon within its isoflavone family:
compound.structure	assay.result
CC(=O)OC[C@H]1O[C@@H](Oc2ccc3c(=O)c(-c4ccc(O)cc4)coc3c2)[C@H](O)[C@@H](O)[C@@H]1O	44.2
O=c1c(-c2ccc(O)cc2)coc2cc(O[C@@H]3O[C@H](CO)[C@@H](O)[C@H](O)[C@H]3O)ccc12	52.8
CC(=O)OC[C@H]1O[C@@H](Oc2cc(O)c3c(=O)c(-c4ccc(O)cc4)coc3c2)[C@H](O)[C@@H](O)[C@@H]1O	43.4
O=c1c(-c2ccc(O)cc2)coc2cc(O[C@@H]3O[C@H](CO)[C@@H](O)[C@H](O)[C@H]3O)cc(O)c12	50.6

I: COc1cc2c(=O)c(-c3ccc(O)cc3)coc2cc1O
II: COc1cc2c(=O)c(-c3ccc(O)cc3)coc2cc1O[C@@H]1O[C@H](CO)[C@@H](O)[C@H](O)[C@H]1O
III: COc1cc2c(=O)c(-c3ccc(O)cc3)coc2cc1O[C@@H]1O[C@H](COC(C)=O)[C@@H](O)[C@H](O)[C@H]1O
IV: COc1cc2c(=O)c(-c3ccc(O)cc3)coc2cc1O[C@@H]1O[C@H](COC(=O)CC(=O)O)[C@@H](O)[C@H](O)[C@H]1O
Query block: Sort these compounds on Decomposition efficiency: ratio of each glycoside/aglycon within its isoflavone family so the largest reading comes first. Returns: the labels listed in the requested order.
Result block: II, III, I, IV
